Test system: Mycobacterium tuberculosis
ASSAY_INFO: Antimycobacterial activity against Mycobacterium tuberculosis H37Rv after 45 days
Type: functional
OBSERVATION_TYPE: MIC (µM)
State the answer as a number, implicitly in µM.

Q) # get_value(readout='MIC', item= `CC[C@H](COC(C)=O)NC(c1ccccc1)(c1ccccc1)c1ccccc1` )
A) 13.4

Q) Would you kindly share the measured MIC for `CC[C@H](CO)NCc1ccnc2ccccc12` ?
A) 21.7

Q) So what does the record say about MIC for `CC[C@H](CO)NCc1ccc(CN[C@H](CC)CO)cc1` ?
A) 17.8

Q) So what does the record say about MIC for CC[C@@H](CO)NCCN[C@@H](CC)CO.Cl.Cl [ETHAMBUTOL HYDROCHLORIDE] ?
A) 7.22

Q) Can you look up the measured MIC of `CC[C@H](CO)N1C(=O)C=C(C)C1=O` for me?
A) 27.3

Q) Fill in the blank: the reported MIC of `CC[C@H](CO)NCc1ccc2ccc3cccc4ccc1c2c34` is ____.
A) 16.5

Q) Query (molecule): `CC[C@@H]1COc2cc3ccccc3c(=O)n21` ; field requested: MIC
A) 23.2

Q) For the molecule `CC[C@H](CO)Nc1cccc(Br)n1` , what MIC is on record?
A) 20.4

Q) Look up MIC for this molecule: `CC[C@H](CO)N1Cc2ccccc2C1`
A) 10.5

Q) # query: MIC of entry `CC[C@H](CO)NC(=O)c1ccc(N(C)C)cc1`
A) 8.46

Q) What does the record list as MIC for `CC[C@H](CO)NC(=O)c1ccccc1C(=O)N[C@H](CC)CO` ?
A) 0.65

Q) MIC lookup needed for `CC[C@H](CO)NCc1ccc(-n2ccnc2)cc1` , thanks.
A) 20.4

Q) What does the data say about its MIC? Entry: `CC[C@H](CO)Nc1ccc2c3c(cccc13)C(=O)N([C@H](CC)CO)C2=O`
A) 14

Q) Bench note: what MIC did `CC[C@H](CO)NC(=O)/C=C/c1ccccc1` show?
A) 9.12

Q) GET /values?readout=MIC&item= `CC[C@H](COC(C)=O)N1C(=O)C=CC1=O`
A) 23.7

Q) Name the reported MIC value associated with the molecule `CC[C@H](CO)NCc1ccc2c(c1)Cc1ccccc1-2`
A) 18.7

Q) Any idea what MIC was measured for `CC[C@H](CO)NCc1c2ccccc2cc2ccccc12` ?
A) 17.9

Q) Param item = `CC[C@H](CO)NCc1cccc2ccccc12` ; retrieve measured MIC.
A) 21.8

Q) Return reported MIC; argument: `CC[C@H](CO)NCc1ccccc1O`
A) 25.6

Q) Look up MIC for this molecule: `CC[C@H](CO)NC(=O)C(C)(C)C`
A) 28.9

Q) What value of measured MIC is listed for `CC[C@H](CO)NC1c2ccccc2-c2ccccc21` ?
A) 19.7

Q) Please give the measured MIC for this molecule: `CCNC(=O)N[C@H](CC)CO`
A) 1.25

Q) So what's the measured MIC for this one? `CC[C@H](CO)NCc1ccncc1`
A) 27.7

Q) Fill in the blank: the reported MIC of `CC[C@H](CO)N1Cc2ccccc2C1=O` is ____.
A) 0.97

Q) What value of measured MIC is listed for `CC[C@H](CO)NP(=O)(c1ccccc1)c1ccccc1` ?
A) 0.69

Q) Consider the molecule `CC[C@H](CO)NC(=O)c1ccccc1O` and give its measured MIC.
A) 0.96

Q) What value of MIC has been reported for the following molecule? `CC[C@H](CO)n1cnc2ccccc2c1=O`
A) 22.9

###

ASSAY_INFO: Solubility of the compound in deionized water
Format: physicochemical
Rule: 1 (yes) for solubility not less than 2000 µg/mL, 0 (no) for anything less.

Q) Please indicate if the recorded solubility for `CC[C@H](CO)N1Cc2ccccc2C1=O` meets or exceeds 2000 µg/mL.
A) 0 (no)

Q) I'd appreciate it if you could say whether `CCNC(=O)N[C@H](CC)CO` has solubility at least equal to 2000 µg/mL.
A) 1 (yes)

Q) Please check the record `CC[C@H](CO)Nc1ccc2c3c(cccc13)C(=O)N([C@H](CC)CO)C2=O` and state if its solubility is at or above 2000 µg/mL.
A) 0 (no)

Q) Has `CC[C@H](CO)N1Cc2ccccc2C1` a recorded solubility greater than or equal to 2000 µg/mL?
A) 0 (no)

Q) Tell me whether solubility is at least 2000 µg/mL here: `CC[C@H](CO)NP(=O)(c1ccccc1)c1ccccc1`
A) 0 (no)

Q) Reported solubility reaches at least 2000 µg/mL for `CC[C@H](CO)NC(=O)c1ccccc1C(=O)N[C@H](CC)CO` ?
A) 1 (yes)

Q) Confirm if solubility reported for the compound `CC[C@H](COC(C)=O)NC(c1ccccc1)(c1ccccc1)c1ccccc1` is 2000 µg/mL or above.
A) 0 (no)

Q) Hi team, for CC[C@@H](CO)NCCN[C@@H](CC)CO.Cl.Cl [ETHAMBUTOL HYDROCHLORIDE] , is the recorded solubility at or above 2000 µg/mL?
A) 1 (yes)

Q) I'd appreciate it if you could say whether `CC[C@H](CO)NC(=O)c1ccc(N(C)C)cc1` has solubility at least equal to 2000 µg/mL.
A) 0 (no)

Q) Dear colleague, could you confirm whether `CC[C@H](CO)NC(=O)/C=C/c1ccccc1` has solubility at or above 2000 µg/mL?
A) 0 (no)

###

Test system: Saccharomyces cerevisiae
ASSAY_INFO: Antifungal activity against Saccharomyces cerevisiae ATCC 9763 at 2 mg/ml after 72 hrs by agar diffusion test
Assay type: functional, organism-based
The source made the active and inactive calls. No cut-off for these calls is given here.
OBSERVATION_TYPE: diameter of the inhibition zone (DIZ)

>  <SMILES_STRING>
CC[C@H](COC(C)=O)N1C(=O)C=CC1=O

>  <STUDY_TARGET>
Saccharomyces cerevisiae

>  <OBS_VALUE>
inactive

$$$$
>  <SMILES_STRING>
CC[C@H](CO)N1C(=O)c2ccccc2C1=O

>  <STUDY_TARGET>
Saccharomyces cerevisiae

>  <OBS_VALUE>
inactive

$$$$
>  <SMILES_STRING>
CC[C@H](CO)NCc1c2ccccc2cc2ccccc12

>  <STUDY_TARGET>
Saccharomyces cerevisiae

>  <OBS_VALUE>
inactive

$$$$
>  <SMILES_STRING>
CC[C@H](CO)NCc1ccc2c(c1)Cc1ccccc1-2

>  <STUDY_TARGET>
Saccharomyces cerevisiae

>  <OBS_VALUE>
inactive

$$$$

###

Provide the recorded zone of inhibition at 50000 µg/mL for the entries that follow.
System: Escherichia coli
ASSAY_INFO: Antibacterial activity against Escherichia coli ATCC 8739 at 50 mg/ml after 24 hrs by agar diffusion test
Assay type: functional
STUDY_CONDITIONS: ATCC 8739, 24 h, read-out: DIZ
# output: numeric value plus its unit

Q) Which zone of inhibition at 50000 µg/mL reading was recorded for the molecule `CC[C@H](CO)Nc1cccc(Br)n1` ?
A) 17 mm

Q) For the molecule `CC[C@H](COC(C)=O)N1C(=O)C=CC1=O` , what zone of inhibition at 50000 µg/mL is on record?
A) 29 mm

Q) Name the reported zone of inhibition at 50000 µg/mL value associated with the molecule `CC[C@H](CO)NCc1ccc(-c2ccccc2)cc1`
A) 28 mm

Q) Look at this molecule and give its reported zone of inhibition at 50000 µg/mL. `CC[C@H](CO)NCc1ccc2ccccc2c1`
A) 22 mm

Q) I am curious: what zone of inhibition at 50000 µg/mL value has been reported for `CC[C@H](CO)NC1c2ccccc2-c2ccccc21` ?
A) 12 mm

Q) Suppose we examine the molecule `CC[C@H](CO)NCc1cccc2ccccc12` ; what zone of inhibition at 50000 µg/mL value has been reported?
A) 28 mm

Q) Give the measured zone of inhibition at 50000 µg/mL of `CC[C@H](CO)N1C(=O)C=C(C)C1=O` .
A) 32 mm

Q) Report zone of inhibition at 50000 µg/mL for `CC[C@@H]1COc2cc3ccccc3c(=O)n21` please.
A) 0 mm

Q) For `CC[C@H](CO)NCc1c2ccccc2cc2ccccc12` , what is its reported zone of inhibition at 50000 µg/mL?
A) 12 mm

Q) Requested read-out: zone of inhibition at 50000 µg/mL. Entry: `CC[C@H](CO)NCc1ccc2c(c1)Cc1ccccc1-2`
A) 16 mm

Q) Field request: zone of inhibition at 50000 µg/mL | item: `CC[C@H](CO)N1Cc2ccccc2C1`
A) 25 mm

Q) Which zone of inhibition at 50000 µg/mL is listed for `CC[C@H](CO)NCc1ccnc2ccccc12` ?
A) 20 mm

Q) # get_value(readout='zone of inhibition at 50000 µg/mL', item= `CC[C@H](CO)NC(=S)Nc1ccccc1` )
A) 16 mm

Q) Fill in: zone of inhibition at 50000 µg/mL of `CC[C@H](CO)N1C(=O)c2ccccc2C1=O` is ___
A) 11 mm
